target: VEGFR1 (Homo sapiens)
Construct: purchased Invitrogen PR6731B
Sequence (P17948 27-1338): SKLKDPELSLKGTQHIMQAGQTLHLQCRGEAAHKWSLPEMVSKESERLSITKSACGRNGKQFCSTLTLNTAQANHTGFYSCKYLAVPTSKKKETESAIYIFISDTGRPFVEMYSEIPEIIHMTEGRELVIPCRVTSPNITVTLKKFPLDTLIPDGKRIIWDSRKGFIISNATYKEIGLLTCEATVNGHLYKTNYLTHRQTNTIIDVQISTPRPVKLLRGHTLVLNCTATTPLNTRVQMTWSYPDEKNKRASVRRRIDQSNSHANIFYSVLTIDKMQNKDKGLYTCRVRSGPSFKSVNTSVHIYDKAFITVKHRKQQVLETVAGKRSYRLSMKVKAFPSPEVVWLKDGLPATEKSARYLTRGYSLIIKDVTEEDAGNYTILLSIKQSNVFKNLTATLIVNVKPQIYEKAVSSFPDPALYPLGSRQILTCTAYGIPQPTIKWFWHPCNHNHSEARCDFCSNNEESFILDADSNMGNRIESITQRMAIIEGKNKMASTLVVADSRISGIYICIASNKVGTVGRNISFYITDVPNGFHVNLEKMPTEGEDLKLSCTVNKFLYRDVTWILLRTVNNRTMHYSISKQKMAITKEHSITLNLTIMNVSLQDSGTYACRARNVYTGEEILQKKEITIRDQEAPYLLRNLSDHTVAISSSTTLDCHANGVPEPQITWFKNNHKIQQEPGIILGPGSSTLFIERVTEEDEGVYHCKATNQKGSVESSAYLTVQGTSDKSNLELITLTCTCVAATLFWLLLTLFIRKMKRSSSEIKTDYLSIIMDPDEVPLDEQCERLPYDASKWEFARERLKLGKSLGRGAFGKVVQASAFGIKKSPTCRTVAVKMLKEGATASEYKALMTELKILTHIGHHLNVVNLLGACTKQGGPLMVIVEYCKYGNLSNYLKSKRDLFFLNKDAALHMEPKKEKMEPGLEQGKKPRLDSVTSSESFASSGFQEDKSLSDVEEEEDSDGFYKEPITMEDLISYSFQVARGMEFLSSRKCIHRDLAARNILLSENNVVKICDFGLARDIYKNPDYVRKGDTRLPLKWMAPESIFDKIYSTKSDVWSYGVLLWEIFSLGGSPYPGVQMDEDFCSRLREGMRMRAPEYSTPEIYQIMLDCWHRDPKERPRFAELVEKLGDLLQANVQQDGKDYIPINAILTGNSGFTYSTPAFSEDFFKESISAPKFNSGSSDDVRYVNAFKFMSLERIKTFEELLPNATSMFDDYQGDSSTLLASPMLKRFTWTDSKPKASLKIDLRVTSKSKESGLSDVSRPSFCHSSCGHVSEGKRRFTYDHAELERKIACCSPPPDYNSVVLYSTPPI
assay_details: Kinase inhibition, Mobility Shift Assay/IMAP, VEGFR1
Type: biochemical
pIC50: −log10 of the molar value.
Below, each of the compounds is paired with its reported pIC50 value.
measurement_name: pIC50

INSERT INTO assay_data (structure_smiles_string, experimental_value) VALUES
  ('NC(=O)c1c(OCc2cc(F)cc(C(=O)NC3CC3)c2)nsc1NC(=O)NCCCCN1CCCC1', 8.31),
  ('NC(=O)c1c(OCc2ccc3ccoc3c2)nsc1NC(=O)NCCCCN1CCCC1', 7.46),
  ('NC(=O)c1c(OCc2cccc(C(=O)NC3CC3)c2)nsc1NC(=O)NCCCN1CCCC1', 8.03),
  ('NC(=O)c1c(OCc2cccc(C(=O)NC3CC3)c2)nsc1NC(=O)NCCN1CCCC1', 7.42),
  ('NC(=O)c1c(OCc2cc3c(cc2F)CCO3)nsc1NC(=O)NCCN1CCCCC1', 7.56),
  ('NC(=O)c1c(OCc2cc3c(cc2F)CCO3)nsc1NC(=O)NCCCN1CC[C@@H](F)C1', 7.87),
  ('CNC(=O)c1cc(COc2nsc(NC(=O)NCCCCN3CCCC3)c2C(N)=O)ccc1F', 8.04),
  ('CN1CCN(CCCNC(=O)Nc2snc(OCc3ccc(F)c(C(=O)NC4CC4)c3)c2C(N)=O)CC1', 8.24),
  ('CN1CCC(CCNC(=O)Nc2snc(OCc3ccc4c(c3F)OCC4)c2C(N)=O)CC1', 7.36),
  ('CN1CCN(CCNC(=O)Nc2snc(OCc3cccc(C(=O)NC4CC4)c3)c2C(N)=O)CC1', 8.18),
  ('NC(=O)c1c(OCc2cc3c(cc2F)CCO3)nsc1NC(=O)NCCCCN1CC[C@@H](O)C1', 8.23),
  ('NC(=O)c1c(OCc2cc(C(=O)NC3CC3)ccc2F)nsc1NC(=O)NCCCN1CC[C@H](F)C1', 8.92),
  ('CNC(=O)c1cccc(COc2nsc(NC(=O)NCCC3CCN(C)CC3)c2C(N)=O)c1', 8.11),
  ('NC(=O)c1c(OCc2ccc(F)c(C(=O)NC3CC3)c2)nsc1NC(=O)NCCCCN1CCCC1', 8.82),
  ('CN1CCC(CCNC(=O)Nc2snc(OCc3cc4c(cc3F)CCO4)c2C(N)=O)CC1', 8.22),
  ('NC(=O)c1c(OCc2ccc3c(c2)OCC3)nsc1NC(=O)NCCCCN1CCCC1', 7.47);

###

Test system: melanin
assay_details: Binding capacity of compounds to melanin
Assay type: in vitro ADME, cuttlefish (Sepia officinalis)
stated_conditions: cuttlefish (Sepia officinalis), melanin suspension (1 mg/mL); 1 mg/mL melanin in PBS pH 7.4, 2 μM compound, 2 h at 37° C.; read-out: Fu % (percentage of free drug)
Below, each of the molecules is paired with its reported fraction unbound at 2 h, 2 μM value.
measurement_name: fraction unbound at 2 h, 2 μM

INSERT INTO results (structure_smiles_string, experimental_value) VALUES
  ('COc1ccc(F)c(COc2nsc(NC(=O)NCCCCN3CC[C@H](O)C3)c2C(N)=O)c1F', 0.0322),
  ('NC(=O)c1c(OCc2cc(C(=O)NC3CC3)ccc2F)nsc1NC(=O)NCCCCN1CCCC1', 0.0374),
  ('NC(=O)c1c(OCc2cc(C(=O)NC3CC3)ccc2F)nsc1NC(=O)NCCCN1CC[C@H](F)C1', 0.0376),
  ('COc1cc(COc2nsc(NC(=O)NCCCCN3CC[C@H](F)C3)c2C(N)=O)cc(OC)c1', 0.0195),
  ('COc1cccc(COc2nsc(NC(=O)NCCCCN3CCCC3)c2C(N)=O)c1F', 0.0232),
  ('COc1cc(OC)c(F)c(COc2nsc(NC(=O)NCCCCN3CC[C@@H](O)C3)c2C(N)=O)c1F', 0.02),
  ('NC(=O)c1c(OCc2ccc(OC(F)F)c(F)c2)nsc1NC(=O)NCCCCN1CCCC1', 0.0421),
  ('COc1ccc(F)c(COc2nsc(NC(=O)NCCCN3CCN(C)CC3)c2C(N)=O)c1F', 0.0403),
  ('CN1CC[C@H](CCNC(=O)Nc2snc(OCc3cc4c(cc3F)CCO4)c2C(N)=O)C1', 0.0469),
  ('COc1ccc(F)c(COc2nsc(NC(=O)NCCCCN3CC[C@@H](F)C3)c2C(N)=O)c1F', 0.0449),
  ('NC(=O)c1c(OCc2cc(C(=O)NC3CC3)ccc2F)nsc1NC(=O)NCCCN1CCCC1', 0.0666),
  ('NC(=O)c1c(OCc2cc(C(=O)NC3CC3)ccc2F)nsc1NC(=O)NCCCN1CC[C@@H](O)C1', 0.0172),
  ('CN1CCN(CCCNC(=O)Nc2snc(OCc3cc(C(=O)NC4CC4)ccc3Cl)c2C(N)=O)CC1', 0.0726),
  ('CN1CCC(CCNC(=O)Nc2snc(OCc3ccc4c(c3F)OCC4)c2C(N)=O)CC1', 0.0391),
  ('COc1cc(OC)c(F)c(COc2nsc(NC(=O)NCCC3CCN(C)CC3)c2C(N)=O)c1F', 0.0437),
  ('COc1ccc(F)c(COc2nsc(NC(=O)NCCCCN3CCCCC3)c2C(N)=O)c1F', 0.0629),
  ('COc1ccc(F)c(COc2nsc(NC(=O)NCCCCN3CC[C@H](F)C3)c2C(N)=O)c1F', 0.0268),
  ('CN1CCC(CCNC(=O)Nc2snc(OCc3ccc4c(c3)OCC4)c2C(N)=O)CC1', 0.0225),
  ('COc1cc(OC)c(F)c(COc2nsc(NC(=O)NCCCN3CCN(C)CC3)c2C(N)=O)c1F', 0.0207),
  ('NC(=O)c1c(OCc2cc(C(=O)NC3CC3)ccc2F)nsc1NC(=O)NCCCN1CC[C@@H](F)C1', 0.0372),
  ('COc1cc(COc2nsc(NC(=O)NCCCCN3CCCC3)c2C(N)=O)c(F)c(OC)c1', 0.0481),
  ('COc1cc(COc2nsc(NC(=O)NCCCCN3CCC(F)(F)C3)c2C(N)=O)cc(OC)c1', 0.0871),
  ('CN1CCN(CCCNC(=O)Nc2snc(OCc3cc4c(cc3F)CCO4)c2C(N)=O)CC1', 0.0702),
  ('CCNC(=O)c1cccc(COc2nsc(NC(=O)NCCCCN3CCCC3)c2C(N)=O)c1', 0.0225),
  ('NC(=O)c1c(OCc2c(F)cc3c(c2F)OCC3)nsc1NC(=O)NCCCCN1CCCC1', 0.0889),
  ('COc1cc(COc2nsc(NC(=O)NCCCCN3CC[C@@H](F)C3)c2C(N)=O)cc(OC)c1', 0.0269),
  ('COc1ccc(F)c(COc2nsc(NC(=O)NCCC3CCN(C)CC3)c2C(N)=O)c1F', 0.0435),
  ('COc1ccc(F)c(COc2nsc(NC(=O)NCCCCN3CCC(F)CC3)c2C(N)=O)c1F', 0.0402),
  ('NC(=O)c1c(OCc2cc3c(cc2F)CCO3)nsc1NC(=O)NCCCCN1CC[C@@H](F)C1', 0.0526),
  ('COc1cc(OC)c(F)c(COc2nsc(NC(=O)NCCCCN3CCCC3)c2C(N)=O)c1F', 0.0446),
  ('NC(=O)c1c(OCc2cc3c(cc2F)CCO3)nsc1NC(=O)NCCCCN1CC[C@H](O)C1', 0.025);

###

target: UniProt P35968
Sequence (P35968 790-1356 limits assumed): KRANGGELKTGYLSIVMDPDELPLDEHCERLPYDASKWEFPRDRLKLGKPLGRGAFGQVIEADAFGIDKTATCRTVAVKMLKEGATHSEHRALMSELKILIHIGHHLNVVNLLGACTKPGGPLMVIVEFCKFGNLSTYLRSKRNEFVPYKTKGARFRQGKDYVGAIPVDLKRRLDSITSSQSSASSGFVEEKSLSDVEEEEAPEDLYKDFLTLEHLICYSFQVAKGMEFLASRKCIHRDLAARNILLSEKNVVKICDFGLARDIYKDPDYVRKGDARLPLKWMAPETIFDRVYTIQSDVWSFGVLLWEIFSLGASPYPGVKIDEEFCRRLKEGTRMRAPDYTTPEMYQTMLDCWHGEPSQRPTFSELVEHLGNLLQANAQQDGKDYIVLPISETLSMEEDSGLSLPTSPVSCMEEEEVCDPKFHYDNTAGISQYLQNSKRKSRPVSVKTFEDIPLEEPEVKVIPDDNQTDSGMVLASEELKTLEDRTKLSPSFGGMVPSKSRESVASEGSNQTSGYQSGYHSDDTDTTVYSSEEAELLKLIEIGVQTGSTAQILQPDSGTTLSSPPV
assay_details: Kinase inhibition, Mobility Shift Assay/IMAP, VEGFR2
Type: biochemical
Parameters: purchased Carna 08-191
pIC50: −log10 of the molar value.
measurement_name: pIC50

INSERT INTO results (structure_smiles_string, measurement_name, experimental_value) VALUES
  ('NC(=O)c1c(OCc2cc3c(cc2F)CCO3)nsc1NC(=O)NCCCCN1CCCC1', 'pIC50', 8.36),
  ('NC(=O)c1c(OCc2ccc(F)c(C(=O)NC3CC3)c2)nsc1NC(=O)NCCCN1CC[C@H](F)C1', 'pIC50', 8.45),
  ('NC(=O)c1c(OCc2cc(C(=O)NC3CC3)c(F)cc2F)nsc1NC(=O)NCCCCN1CCCC1', 'pIC50', 8.92),
  ('COc1ccc(COc2nsc(NC(=O)NCCCCN3CCCC3)c2C(N)=O)cn1', 'pIC50', 7.29),
  ('CN1CCN(CCCNC(=O)Nc2snc(OCc3cc(C(=O)NC4CC4)ccc3Cl)c2C(N)=O)CC1', 'pIC50', 9.36),
  ('CN1CC[C@H](CCNC(=O)Nc2snc(OCc3cc4c(cc3F)CCO4)c2C(N)=O)C1', 'pIC50', 8.33),
  ('COc1cc(OC)c(F)c(COc2nsc(NC(=O)NCCCN3CCN(C)CC3)c2C(N)=O)c1F', 'pIC50', 8.60),
  ('CCN1CCN(CCCNC(=O)Nc2snc(OCc3ccc(F)c(C(=O)NC4CC4)c3)c2C(N)=O)CC1', 'pIC50', 8.90);
